System: TO-N3 (biotin conjugate)
PROTOCOL_DESCRIPTION: pull-down binding Z-score (relative to library population); higher = stronger binding
STATED_CONDITIONS: RNA library: Library-2
// thresholds for pull-down binding Z-score classes: low bracket: < -0.7; middle bracket: ≥ -0.7 and < 0.2; high bracket: ≥ 0.2

The examples below pair each entry with its known result.
UAGGAUUUGGGAGUUAUACUA [hsa-mir-5690]: middle bracket
UGGUUGAAUAUGUGAAUGGCAUCG [hsa-mir-449a]: middle bracket
CAGCAGCAGCAGCAGCAGCAGCAGCAGCAGCAGCAGCAGCAGCAGCAG [r(CAG)16]: high bracket
UUAAGUGACACACUUAA: low bracket

Enquiry: Band of CCCCCAAUUAAAGUAGAUUGGGGG [hsa-mir-3153] ?
Return: low bracket

Enquiry: UCCUGUAGUGUCUUAUAUACAAUACAGUAGGA [hsa-mir-613] ?
Return: low bracket

Enquiry: CCUUCACUGUAGAAAAAGG [SHAPE_invivo_SARS-CoV-2_Motif_423] ?
Return: low bracket

Enquiry: GAUGCUGUUGUGUGUUUCAAUAGCACUUAUGCAUC ?
Return: low bracket

Enquiry: AUAUGAGCUUCAUUUAUACAUUUCAUAU [hsa-mir-556] ?
Return: middle bracket

Enquiry: AUUUAUGUGAACUAAAAUAUAAAU [hsa-mir-513b] ?
Return: high bracket

Enquiry: UAAAGUACUUAAUGAGAAGUGCUCUGCCUAUACAGUUGAACUCGGUACAGAAGUAAAUGAGUUCGCCUGUGUUGUGGCAGAUGCUGUCAUAAAAACUUUG [DMSMaPseq_invitro_SARS-CoV-2_Motif_52] ?
Return: middle bracket

Enquiry: CUUCCUGAGCACGCUCAUGAUGAGCAAACUGAGCCUCUAAG [hsa-mir-3653] ?
Return: high bracket

Enquiry: AGGCUUGGCACUUGAGGGAAAGCCU [hsa-mir-8059] ?
Return: high bracket
